- System: TRPC4 beta (transient receptor potential cation channel C4), mouse
- TEST METHOD NOTES: TRPC4 cation channel opening, retest – cell-based, Fluo4 calcium, HEK293 TRPC4beta/mu-opioid, duplicates, 10 µM, confirmation (AID 2426)
- ASSAY SETUP: Fluo4 calcium fluorescence, at 10 µM
Activity calls are given as the source filed them.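 Rule for the calls: active = fluorescence ratio normalized to control raised more than 50% in primary screen plus both repeat runs; inactive = the rest.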
Write down one outcome, taken from TRUE (active), FALSE (inactive)

## Task // param item: "NS(=O)(=O)c1ccc(Nc2nc(-c3ccc(O)cc3O)cs2)cc1" ; yields the recorded call
## Result FALSE

## Task // param item: "O=C1CC2(CCN(S(=O)(=O)c3ccccc3)CC2)Oc2ccccc21" ; yields the recorded call
## Result FALSE

## Task // param item: "OCCNc1nc(Nc2ccccc2)nc2ccccc12" ; yields the recorded call
## Result FALSE

## Task // param item: COc1ccc(N/C(C)=C2/C(=O)C(=O)N(CCO)C2c2ccc([N+](=O)[O-])cc2)cc1 (stereo not drawn) ; yields the recorded call
## Result FALSE

## Task // param item: "c1csc(CNc2nc(-c3cccs3)nc3ccccc23)c1" ; yields the recorded call
## Result FALSE

## Task // param item: "CCCc1nc2oc3c(NCCN(C)C)ncnc3c2c2c1CCCC2" ; yields the recorded call
## Result FALSE

## Task // param item: Cc1cccc(C(=O)OC2CCCN(C)C2)c1C (stereo not drawn) ; yields the recorded call
## Result TRUE

## Task // param item: "COc1cc2c(C(=O)N3CCN(C)CC3)c(CSc3ccccc3)n(C)c2cc1Br" ; yields the recorded call
## Result FALSE

## Task // param item: Cc1sc2ncnc(NCC(c3ccccc3)N(C)C)c2c1C (stereo not drawn) ; yields the recorded call
## Result TRUE

## Task // param item: "CC(C)Cc1nc(N2CCOCC2)c(C#N)c2c1CCC2" ; yields the recorded call
## Result FALSE

## Task // param item: "CC(=O)c1ccc(N2CCN(C(=O)CCS(=O)(=O)c3ccc4c(c3)NC(=O)CS4)CC2)cc1" ; yields the recorded call
## Result FALSE

## Task // param item: "Clc1ccc(C[n+]2cc(-c3ccccc3)n3c2CCC3)cc1Cl" ; yields the recorded call
## Result FALSE

## Task // param item: O=C(Nc1ccc(F)cc1)N1CCN2C(=O)c3ccccc3C12c1ccccc1 (stereo not drawn) ; yields the recorded call
## Result FALSE
